- Tested on: Septoria tritici
- METHOD DESCRIPTION: Test G: wheat leaf blotch on wheat seedlings, sprayed the day before inoculation, visual disease rating
- Assay type: in vivo
- REPORTED CONDITIONS: 200 ppm; 100 = 100% disease control, 0 = no control relative to controls
- Excerpt: General protocol for preparing test suspensions for Tests A-J: The test compounds were first dissolved in acetone in an amount equal to 3% of the final volume and then suspended at the desired concentration (in ppm) in acetone and purified water (50/50 mix) containing 250 ppm of the surfactant Trem® 014 (polyhydric alcohol esters). […]
ENDPOINT NAME: Test G disease control rating
Form field: result (number plus unit)

Record excerpt, results attached:
input: For the compound `COc1cc(F)c(-n2nnc(C)c2-c2ccc(Cl)cc2)c(F)c1` , what Test G disease control rating is on record?
output: 96%

input: For the compound `COc1cc(Cl)cc(F)c1-c1c(Cl)nc(Br)n1-c1ccc(Cl)cc1` , what Test G disease control rating is on record?
output: 93%

input: For the compound `Fc1cc(-n2cnc(Br)c2-c2c(F)ccc(F)c2F)ccc1Cl` , what Test G disease control rating is on record?
output: 95%

input: For the compound `COc1ccc(F)c(-c2c(Cl)nc(C)n2-c2cccc(F)c2)c1F` , what Test G disease control rating is on record?
output: 95%

input: For the compound `COc1ccc(F)c(-c2c(Cl)ncn2-c2ccc(C)c(F)c2)c1F` , what Test G disease control rating is on record?
output: 97%

Next:
input: For the compound `COc1ccc(F)c(-c2c(Cl)nc(Br)n2-c2ccc(C#N)cc2)c1F` , what Test G disease control rating is on record?
output: 98%

input: For the compound `Fc1cc(F)c(-c2c(Cl)nc(Cl)n2-c2cccc(OC(F)F)c2)c(F)c1` , what Test G disease control rating is on record?
output: 98%

input: For the compound `Fc1cc(-n2cnc(Br)c2-c2c(F)ccc(F)c2Cl)ccc1Cl` , what Test G disease control rating is on record?
output: 100%

---

- Tested on: Puccinia recondita f. sp. tritici
- METHOD DESCRIPTION: Test I: wheat leaf rust on wheat seedlings, sprayed the day before inoculation, visual disease rating
- Type: in vivo
- REPORTED CONDITIONS: 40 ppm (marked *); 100 = 100% disease control
Marks after values point to notes of the source that are not given here.
ENDPOINT NAME: Test I disease control rating

Record excerpt, results attached:
input: Which Test I disease control rating is reported with Puccinia recondita f. sp. tritici for this entry: COc1cc(F)c(-c2c(C)nc(C)n2-c2ccc(Cl)c(F)c2)c(F)c1 [compound 44] ?
output: 99* %

input: Which Test I disease control rating is reported with Puccinia recondita f. sp. tritici for this entry: COc1cc(F)c(-c2c(Br)nc(Br)n2-c2ccc(C)cc2)c(F)c1 [compound 524] ?
output: 99* %

input: Which Test I disease control rating is reported with Puccinia recondita f. sp. tritici for this entry: COc1cc(F)c(-n2c(Cl)nc(C)c2-c2cccc(F)c2)c(F)c1 [compound 686] ?
output: 99* %

input: Which Test I disease control rating is reported with Puccinia recondita f. sp. tritici for this entry: CN(C)c1ccc(-n2cnc(Cl)c2-c2c(F)cccc2F)cc1Cl [compound 650] ?
output: 0* %

Next:
input: Which Test I disease control rating is reported with Puccinia recondita f. sp. tritici for this entry: Cc1ccc(-n2c(Cl)nc(C)c2-c2c(F)ccc(F)c2Cl)cc1 [compound 495] ?
output: 99* %

input: Which Test I disease control rating is reported with Puccinia recondita f. sp. tritici for this entry: Cc1nc(C)n(-c2ccc(F)cc2Cl)c1-c1ccc(Cl)c(F)c1 [compound 543] ?
output: 95* %

---

- Test system: Septoria tritici
- METHOD DESCRIPTION: Test G: wheat leaf blotch on wheat seedlings, sprayed the day before inoculation, visual disease rating
- Format: in vivo
- REPORTED CONDITIONS: 200 ppm; 100 = 100% disease control, 0 = no control relative to controls
Cut-off 90% on Test G disease control rating: below means Yes, at or above means No.

Below are worked cases with known answers.
input: Consider the compound `COc1ccc(-c2c(Cl)nc(Cl)n2-c2ccc(Cl)c(F)c2)cn1` . Is its Test G disease control rating strictly less than 90%?
output: No

input: Consider the compound `Cc1cccc(-c2c(CCl)nc(Cl)n2-c2ccc(Cl)c(F)c2)n1` . Is its Test G disease control rating strictly less than 90%?
output: Yes

input: Consider the compound `Cc1nc(Cl)c(-c2c(F)cccc2F)n1-c1ccc(Cl)nc1` . Is its Test G disease control rating strictly less than 90%?
output: No

input: Consider the compound `CN(C)c1ncn(-c2cccc(F)c2)c1-c1c(F)cc(F)cc1F` . Is its Test G disease control rating strictly less than 90%?
output: Yes

input: Consider the compound `Cc1nc(Cl)c(-c2ccc(Cl)cc2)n1-c1c(F)cc([N+](=O)[O-])cc1F` . Is its Test G disease control rating strictly less than 90%?
output: No

input: Consider the compound `Cc1ccc(-n2cnc(Cl)c2-c2c(F)cc(F)cc2F)cc1` . Is its Test G disease control rating strictly less than 90%?
output: Yes

input: Consider the compound `Cc1nc(Cl)c(-c2c(F)cccc2F)n1-c1ccccc1F` . Is its Test G disease control rating strictly less than 90%?
output: No

input: Consider the compound `Cc1nc(Cl)c(-c2c(F)cccc2F)n1-c1ccc(C(F)(F)F)cc1` . Is its Test G disease control rating strictly less than 90%?
output: No

Next:
input: Consider the compound `COc1cc(OC)cc(-n2c(C)nc(Br)c2Cc2c(F)cc(F)cc2F)c1` . Is its Test G disease control rating strictly less than 90%?
output: Yes

input: Consider the compound `Cc1nc(Cl)c(Cc2c(F)cc(F)cc2F)n1-c1ccc(Cl)cc1` . Is its Test G disease control rating strictly less than 90%?
output: No

input: Consider the compound `Cc1ncc(Cc2ccc(F)cc2F)n1-c1ccc(Cl)cc1` . Is its Test G disease control rating strictly less than 90%?
output: No

input: Consider the compound `Cc1ccc(-n2c(Cl)nc(Cl)c2-c2c(F)ccc(C#N)c2F)cc1` . Is its Test G disease control rating strictly less than 90%?
output: No

input: Consider the compound `Cc1nc(Cl)n(-c2ccc(Cl)c(F)c2)c1-c1ccnc(Br)c1` . Is its Test G disease control rating strictly less than 90%?
output: No

input: Consider the compound `Fc1cc(F)c(-c2c(Cl)ncn2-c2ccc(OC(F)(F)F)cc2)c(F)c1` . Is its Test G disease control rating strictly less than 90%?
output: No

---

- Test system: Puccinia recondita f. sp. tritici
- METHOD DESCRIPTION: Test I: wheat leaf rust on wheat seedlings, sprayed the day before inoculation, visual disease rating
- Type: in vivo
- REPORTED CONDITIONS: 40 ppm (marked *); 100 = 100% disease control
Marks after values point to notes of the source that are not given here.
Test I disease control rating values, listed per item

input: For the compound `Fc1cc(-n2c(Br)nc(Br)c2-c2c(F)ccc(F)c2Cl)ccc1Cl` , what Test I disease control rating is on record?
output: 98* %

input: For the compound `COc1cc(F)c(-c2c(Cl)nc(Cl)n2-c2ccc(OC)c(Cl)c2)c(F)c1` , what Test I disease control rating is on record?
output: 92* %

input: For the compound `COC(=O)c1ccc(-n2c(Cl)nc(Cl)c2-c2c(F)cccc2F)cc1` , what Test I disease control rating is on record?
output: 61* %

input: For the compound `CC(=O)Nc1ccc(-n2c(Cl)nc(Cl)c2-c2c(F)cccc2F)cc1Cl` , what Test I disease control rating is on record?
output: 52* %

input: For the compound `CN(C)c1ccc(-n2cnc(N(C)C)c2-c2c(F)cccc2F)cc1` , what Test I disease control rating is on record?
output: 0* %

Let us examine a further case.
input: For the compound `COc1cc(OC)c(Br)c(-n2cnc(Br)c2-c2ccc(Cl)cc2F)c1Cl` , what Test I disease control rating is on record?
output: 98* %
